- Tested on: PANC-1, pancreas ductal carcinoma
- experimental details: CellTiter-Glo cell viability assay, cancer cell cytotoxicity/anti-proliferation panel (Chempartner)
- Type: cell-based
- assay conditions: PANC-1; 72 hours; compounds 10 μM starting, STS 2 μM starting, 10-pt, 3-fold dilution
Entries annotated with measured Inhibition
parameter measured: Inhibition (%)

- molecule: "CCCCCc1cc2c(c(O)c1C(=O)NCCN(C)C)[C@@H]1C=C(C)CC[C@H]1C(C)(C)O2 [Ia6]"
  reading: 90.10
- molecule: "CCCCCc1cc2c(c(O)c1C(=O)NCCCN1CCOCC1)[C@@H]1C=C(C)CC[C@H]1C(C)(C)O2 [Ia9]"
  reading: 92.19
- molecule: "CCCCCc1cc2c(c(O)c1C(=O)N/N=C/c1ncccn1)[C@@H]1C=C(C)CC[C@H]1C(C)(C)O2 [Ia16]"
  reading: 85.71
- molecule: "CCCCCc1cc2c(c(O)c1C(=O)O)[C@@H]1C=C(C)CC[C@H]1C(C)(C)O2 [THCA, tetrahydrocannabinolic acid, reference compound]"
  reading: 15.20
